Measured values drawn from patent US20130295102A1 for this set.

# Assay System: T1, Cynomolgus Factor P (cynomolgus)
# T1 construct: Purified from cynomolgus serum for SET/Biacore; Factor P of cynomolgus serum in the functional assays; also called Cyno Factor P; cyno FP
# Assay Text: SET, solution equilibrium titration
Measure: Kd (nM)
Just the number please, in nM, no unit attached.

# example entries with known answers
Binder	Result Units	Numeric Value
NVS965-S (Fab, V domains shown, NVS965 with heavy chain N30 replaced with serine) VH: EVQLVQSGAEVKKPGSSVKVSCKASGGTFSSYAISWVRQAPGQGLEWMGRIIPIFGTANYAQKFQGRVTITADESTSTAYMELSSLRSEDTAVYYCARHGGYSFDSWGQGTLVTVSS VL: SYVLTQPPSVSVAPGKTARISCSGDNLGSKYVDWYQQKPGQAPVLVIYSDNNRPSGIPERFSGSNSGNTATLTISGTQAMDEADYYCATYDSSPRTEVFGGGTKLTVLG	nM	0.036
NVS967 (Fab, V domains shown, Disulfide-bridged Fab; also called Fab NVS967) VH: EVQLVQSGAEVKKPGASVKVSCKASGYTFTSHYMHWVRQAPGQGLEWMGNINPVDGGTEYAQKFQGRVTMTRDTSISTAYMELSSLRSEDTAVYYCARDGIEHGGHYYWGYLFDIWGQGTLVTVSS VL: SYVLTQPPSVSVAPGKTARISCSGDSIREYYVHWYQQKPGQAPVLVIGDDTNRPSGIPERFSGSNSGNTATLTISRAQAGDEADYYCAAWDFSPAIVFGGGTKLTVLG	nM	0.28
NVS963 (Fab, V domains shown, Disulfide-bridged Fab; also called Fab NVS963) VH: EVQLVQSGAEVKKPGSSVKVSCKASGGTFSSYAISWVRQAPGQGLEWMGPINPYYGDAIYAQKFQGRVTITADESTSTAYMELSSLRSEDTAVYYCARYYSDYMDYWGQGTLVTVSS VL: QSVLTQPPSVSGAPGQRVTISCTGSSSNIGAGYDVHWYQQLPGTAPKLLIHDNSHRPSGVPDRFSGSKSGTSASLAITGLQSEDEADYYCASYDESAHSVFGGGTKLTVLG	nM	0.115

Let us move to another entry and its Kd.
[ask] // lookup Kd for NVS966 (Fab, V domains shown, Disulfide-bridged Fab; also called Fab NVS966) VH: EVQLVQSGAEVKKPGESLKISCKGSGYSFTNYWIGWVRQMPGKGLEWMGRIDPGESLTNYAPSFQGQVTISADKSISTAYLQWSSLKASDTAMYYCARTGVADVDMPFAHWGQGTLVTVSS VL: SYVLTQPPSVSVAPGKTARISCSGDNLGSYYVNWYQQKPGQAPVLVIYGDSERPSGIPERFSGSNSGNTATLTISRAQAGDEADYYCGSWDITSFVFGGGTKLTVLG
[reply] 0.04
